# Test system: MAP3K15
# Protocol conditions: concentration: 1 μM, replicates: in singlicate; n = 1;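 further: KINOMEscan kinase panel screen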
Recorded endpoint: %Inh (%)
Only the number, expressed in %, is required.

Previously resolved entries follow.
Molecule: O=c1cc(N2CCOCC2)nc2n(Cc3cccc4ccccc34)ccn12 [GSK2333389]
Measured: 0

Molecule: Cc1ccc(C(=O)NCC(N)=O)cc1-n1c(C)cc(OCc2ccc(F)cc2F)c(Br)c1=O
Measured: 0

Molecule: O=c1cc(N2CCOCC2)nc2n(Cc3cccc(Cl)c3Cl)c(C3CC3)nn12 [GSK2358994]
Measured: 0

IN: Hello, I am looking for reported %Inh with MAP3K15 for Fc1ccc(-c2nn3c(OCC(F)(F)F)cccc3c2-c2ccncc2)cc1 [GW514784] . Could you help?
OUT: 0

IN: Moving on to `Cc1cccc(-c2nc(-c3ccc(S(C)(=O)=O)cc3)sc2-c2ccncc2)c1`
OUT: 9

* * *

# Test system: PRP4
# Protocol conditions: concentration: 1 μM, replicates: in singlicate; n = 1
Classify: T when %Inh is strictly less than 40%; F when %Inh is not.

Look over these answered cases.
Compound: NCC(NC(=O)c1cc(-c2cn[nH]c2)c(-c2ccnc3[nH]ccc23)s1)c1ccccc1.O=C(O)C(F)(F)F.O=C(O)C(F)(F)F (centres unmarked) [GSK1325775]
Group label: F

Compound: C[C@@H](Oc1cc(-n2cnc3ccc(NC(=O)NC(C)(C)C)cc32)sc1C(N)=O)c1ccccc1Cl [GSK346294]
Group label: F

Compound: O=C(c1ccc(-c2cc(-c3c[nH]nc3-c3ccccn3)ccn2)cc1)N1CCOCC1 [GW812171]
Group label: T

IN: Input CN(C(=O)c1ccc(-c2cc(-c3c[nH]nc3-c3ccccn3)ccn2)cc1)C1CCOCC1 [GW810083] ; condition: %Inh strictly below 40%. Does it hold?
OUT: T

IN: Moving on to Cc1nnc(-c2ccc3ncc(-c4ccc(S(C)=O)cc4)n3c2)o1 (centres unmarked)
OUT: T

IN: Moving on to Cc1nnc(-c2ccc(C)c(-c3ccc(C(=O)Nc4ccc(NS(C)(=O)=O)cc4)cc3)c2)o1 [GW702865]
OUT: F

IN: Moving on to COc1ccc(COc2cc(-n3cnc4ccccc43)sc2C(N)=O)cc1 [GSK1024304]
OUT: T

* * *

# Test system: MAPKAPK5
# Protocol conditions: concentration: 1 μM, replicates: in singlicate; n = 1
Recorded endpoint: %Inh
Give the number first and the unit second.

IN: Recorded %Inh for `CN(C(=O)c1ccc(-c2cc(-c3c[nH]nc3-c3ccccn3)ccn2)cc1)C1CCOCC1` , please?
OUT: 0%

IN: Moving on to `O=c1cc(N2CCOCC2)nc2n(Cc3cccc(F)c3)ccn12`
OUT: 0%

IN: Moving on to `CC(C)(C)n1cnc2c(N)ncnc21`
OUT: 0%

IN: Moving on to `O=C(NOCC1CC1)c1ccc(F)c(F)c1Nc1ccc(I)cc1Cl`
OUT: 0%

* * *

# Test system: PLK4
# Protocol conditions: concentration: 1 μM, replicates: in singlicate; n = 1
Recorded endpoint: %Inh (%)
Only the number, expressed in %, is required.

Previously resolved entries follow.
Molecule: O=C(Nc1n[nH]c2cc(-c3cccc(F)c3)ccc12)C1CC1 [SB-735464]
Unit abbrev: %
%Inh: 4
--
Molecule: Cc1nnc(-c2ccc3ncc(-c4ccc(S(C)=O)cc4)n3c2)o1 (centres unmarked)
Unit abbrev: %
%Inh: 0
--
Molecule: CC(C)(C)n1cnc2c(N)ncnc21 [SKF-97359]
Unit abbrev: %
%Inh: 0
--
Molecule: Cl.Oc1cccc(Nc2ccnc3cc(-c4ccncc4)ccc23)c1 [GW494601]
Unit abbrev: %
%Inh: 25

As a next step, examine the molecule that follows.
IN: Recorded %Inh for COc1cc2ncn(-c3cc(OCc4sccc4Cl)c(C(N)=O)s3)c2cc1OC [GSK448459] , please?
OUT: 4

* * *

# Test system: MAPKAPK5
# Protocol conditions: concentration: 1 μM, replicates: in singlicate; n = 1
Each entry below carries its reported %Inh.
Only the number, expressed in %, is required.

Molecule: COc1ccc(CNC(=O)NC2CCN(c3ccnc(Nc4ccc(OC)cc4)n3)C2)cc1 (stereo not drawn) [GSK1379727]
%Inh (%): 0

IN: Recorded %Inh for `CN1c2ccc(CNc3ccc(F)cc3)cc2-c2c(cnn2C)S1(=O)=O` , please?
OUT: 0

IN: Moving on to c1ccc(-c2n[nH]cc2-c2ccnc3ccccc23)nc1 [GW271431]
OUT: 0

* * *

# Test system: JNK2
# Construct: gene MAPK9
# Protocol conditions: concentration: 1 μM, replicates: in singlicate; n = 1
Recorded endpoint: %Inh (%)
Only the number, expressed in %, is required.

Previously resolved entries follow.
Compound: CN(C(=O)c1ccc(-c2cc(-c3c[nH]nc3-c3ccccn3)ccn2)cc1)C1CCOCC1 [GW810083]
Measured on: JNK2
Measured: 45

Compound: Cn1cc(-c2ccc3c(c2)CCN3C(=O)Cc2ccccc2Cl)c2c(N)ncnc21 [GSK2608885]
Measured on: JNK2
Measured: 55

Compound: NCC(NC(=O)c1cc(-c2cn[nH]c2)c(-c2ccnc3[nH]ccc23)s1)c1ccccc1.O=C(O)C(F)(F)F.O=C(O)C(F)(F)F (centres unmarked) [GSK1325775]
Measured on: JNK2
Measured: 7

Compound: COc1cc2ncn(-c3cc(OCc4sccc4Cl)c(C(N)=O)s3)c2cc1OC [GSK448459]
Measured on: JNK2
Measured: 11

Compound: O=C(NCCNc1ccnc(Nc2ccc(F)cc2)n1)c1cc2ccccc2s1 [GSK1379874]
Measured on: JNK2
Measured: 0

Compound: O=C(NCCNc1ccnc(Nc2ccc(F)cc2)n1)Nc1ccccc1F [GSK1379880]
Measured on: JNK2
Measured: 19

Compound: O=c1cc(N2CCOCC2)nc2n(Cc3cccc4ccccc34)ccn12 [GSK2333389]
Measured on: JNK2
Measured: 0

As a next step, examine the compound that follows.
IN: Hello, I am looking for reported %Inh with JNK2 for `Cc1cccc(-c2nc(-c3ccc(S(C)(=O)=O)cc3)sc2-c2ccncc2)c1` . Could you help?
OUT: 28

* * *

# Tested on: CDK4
# Protocol conditions: concentration: 1 μM, replicates: in singlicate; n = 1
Each entry below carries its reported %Inh.
Only the number, expressed in %, is required.

Smiles input: Cc1cccc(Cn2ccn3c(=O)cc(N4CCOCC4)nc23)c1
%Inh, %: 6

Smiles input: Fc1ccc(-c2ncn(CCCN3CCOCC3)c2-c2ccccn2)cc1
%Inh, %: 0

Smiles input: Fc1ccc(-c2nn3c(OCC(F)(F)F)cccc3c2-c2ccncc2)cc1
%Inh, %: 46

Smiles input: Cc1c2ccc(N(C)c3ccnc(Nc4cccc(S(N)(=O)=O)c4)n3)cc2nn1Cc1ccccc1.Cl.Cl
%Inh, %: 2

Smiles input: CCCCCc1nc2c(N)ncnc2n1CCCCC
%Inh, %: 13

Smiles input: Nc1nc(-c2ccc3c(N)n[nH]c3c2)cc(N2CCCC2)n1
%Inh, %: 0

Smiles input: CCn1cnc2c(N)ncnc21
%Inh, %: 0

Smiles input: Nc1nccc(-c2c(-c3ccc(F)cc3)ncn2C2CCN(CC(F)(F)F)CC2)n1
%Inh, %: 52

As a next step, examine the molecule that follows.
IN: Recorded %Inh for `Cc1ccc(NC(=O)c2ccnc(N3CCN(C)CC3)c2)cc1-c1ccc(C(=O)NCC2CC2)cc1` , please?
OUT: 2

* * *

# System: PIK3CA
# Protocol conditions: concentration: 1 μM, replicates: in singlicate; n = 1
Recorded endpoint: %Inh (%)
Only the number, expressed in %, is required.

Molecule: COc1ccc(CNC(=O)NC2CCN(c3ccnc(Nc4ccc(OC)cc4)n3)C2)cc1 (stereo not drawn)
%Inh (%): 0
//
Molecule: O=C(NCCNc1ccnc(Nc2ccc(F)cc2)n1)Nc1ccccc1F
%Inh (%): 0
//
Molecule: CN1c2ccc(NCc3ccc(F)cc3)cc2-c2c(cnn2C)S1(=O)=O
%Inh (%): 0
//
Molecule: Cc1nnc(-c2ccc(C)c(-c3ccc(C(=O)Nc4ccc(NS(C)(=O)=O)cc4)cc3)c2)o1
%Inh (%): 0

IN: Recorded %Inh for `Cc1cccc(-c2nc(Nc3ccc4ncsc4c3)c3ccccc3n2)n1` , please?
OUT: 0

IN: Moving on to `NS(=O)(=O)c1cccc(-c2ccc3nccc(-c4cccc(S(N)(=O)=O)c4)c3c2)c1`
OUT: 38

IN: Moving on to `CCCCCc1nc2c(N)ncnc2n1CCCCC`
OUT: 14

IN: Moving on to COc1cc(Nc2nccc(N3CCC(NC(=O)c4cccc(NC(C)=O)c4)C3)n2)cc(OC)c1OC (stereo not drawn)
OUT: 99.9

IN: Moving on to `O=C(c1ccc(-c2cc(-c3c[nH]nc3-c3ccccn3)ccn2)cc1)N1CCOCC1`
OUT: 29

IN: Moving on to Cc1nnc(-c2ccc3occ(-c4ccc(C(C)O)cc4)c3c2)o1 (stereo not drawn)
OUT: 9
